Cited source for all entries: ChEMBL document CHEMBL1157707

# half-life per record follows
# assay-protocol: Metabolic stability in mouse liver microsomes assessed as half life
# Assay type: ADME, Microsome
value-kind: half-life (min)

* CCn1nnc2c(N3CCOCC3)nc(-c3ccc(NC(=O)Nc4ccc(C(=O)NCCCN(C)C)cc4)cc3)nc21 | 26
* CCn1nnc2c(N3CCOCC3)nc(-c3ccc(NC(=O)Nc4ccc(C(=O)NCCN(C)C)cc4)cc3)nc21 | 28
* CCn1nnc2c(N3CCOCC3)nc(-c3ccc(NC(=O)Nc4ccc(C(=O)NCCc5ccccn5)cc4)cc3)nc21 | 19
* CCn1nnc2c(N3CCOCC3)nc(-c3ccc(NC(=O)Nc4ccc(C(=O)NCCN5CCN(C)CC5)cc4)cc3)nc21 | 28
* CCNC(=O)c1ccc(NC(=O)Nc2ccc(-c3nc(N4CCOCC4)c4nnn(CC)c4n3)cc2)cc1 | 29
* CCCCNC(=O)c1ccc(NC(=O)Nc2ccc(-c3nc(N4CCOCC4)c4nnn(CC)c4n3)cc2)cc1 | 27
